PROCEDURE_TEXT: Cell Viability - LYMP2-009 (AID 968);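 also: cells exposed to compound for 24 h at 37 °C; 0% = DMSO alone and the full-kill end = tetraoctylammonium bromide at 92 µM; nearly all actives have a fitted effect of over 55% in size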
CONDITION_SET: LYMP2-009 lymphoblastoid cell viability; series mostly up to 92.2 µM
Inconclusive results are not listed. Calls of active or inactive are those of the source. Calls follow the shape of the dose curve; as a rule, active = well fitted cell-killing curve with a large enough effect; inconclusive = small, poorly fitted or top-dose-only effect; inactive = flat fitted curve, though single readings scatter.
Hi there, use one of these labels in your reply, thanks! label 1 for active, label 0 for inactive

Recorded results for 5 compounds are shown here.
COMPOUND: CC(C)[C@]12CC(=O)[C@H](C)[C@H]1C2
ANSWER_LABEL: label 0
--
COMPOUND: O=[N+]([O-])c1ccc2c3c(cccc13)CC2
ANSWER_LABEL: label 0
--
COMPOUND: O=[N+]([O-])c1ccccc1O
ANSWER_LABEL: label 0
--
COMPOUND: CC(C)C#N
ANSWER_LABEL: label 0
--
COMPOUND: c1ccc2c(c1)CCNC2
ANSWER_LABEL: label 0

[ask] Could you check what this test reported for "CCN(CC)CCO" ?
[reply] label 0

[ask] Query: recorded result category for "ClCCCCl" in this test
[reply] label 0

* * *

ASSAY_TARGET: Mitogen-activated protein kinase 10 (Mus musculus)
PROCEDURE_TEXT: JNK3 AlphaScreen Assay (AID 530);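 also: kinase came from lysate of stimulated human HepG2 cells; signal reports phosphorylation of biotinylated GST-cJun 1-79 at Ser73 with 10 µM ATP; % is scaled to controls: 0 for no effect and ±100 for the full control effect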
CONDITION_SET: JNK3 lysate, c-Jun phosphorylation; series mostly up to 57.1 µM
Inconclusive results are not listed. Calls of active or inactive are those of the source. Calls come from the whole dose curve; as a rule, active = well fitted curve in either direction with a large enough effect (not every such curve was filed as active); inconclusive = small, poorly fitted or top-dose-only effect, or another doubt; inactive = flat fitted curve, though single readings scatter.
MEASUREMENT_KIND: activity change, negative = inhibition

COMPOUND: CC(C)CCC1(CCN)C(=O)NC(=O)NC1=O
MEASUREMENT_KIND: activity change, negative = inhibition
MEASURED: -0.876% [at 11.4 µM] (inactive)
//
COMPOUND: CC1=NN(c2ccc(S(=O)(=O)O)cc2C)C(=[OH+])[C@H]1N=Nc1cc(S(=O)(=O)O)ccc1C(=O)O.O.[Cr]
MEASUREMENT_KIND: activity change, negative = inhibition
MEASURED: -0.77% [at 11.4 µM] (inactive)
//
COMPOUND: C[C@H](Br)CN(C[C@H](C)Br)c1ccc2c(c1)Cc1ccccc1-2
MEASUREMENT_KIND: activity change, negative = inhibition
MEASURED: -8.45% [at 11.4 µM] (inactive)
//
COMPOUND: COc1cc2c(cc1OC)[C@]13CC[N@+]4(C)CC5=CCO[C@H]6CC(=O)N2[C@@H]1[C@@H]6[C@@H]5C[C@]34O
MEASUREMENT_KIND: activity change, negative = inhibition
MEASURED: 1.38% [at 11.4 µM] (inactive)
//
COMPOUND: CC1(C)N=C(N)N=C(N)N1c1cccc(C(=O)Nc2ccc(S(=O)(=O)F)cc2)c1
MEASUREMENT_KIND: activity change, negative = inhibition
MEASURED: 7.01% [at 11.4 µM] (inactive)

[ask] Lab note: need activity change, negative = inhibition for "COc1ccccc1N" on Mitogen-activated protein kinase 10 (Mus musculus), anyone have it?
[reply] inactive

[ask] Given the entry CC1CC(=O)O1 (stereo unspecified) , what activity change, negative = inhibition was observed with Mitogen-activated protein kinase 10 (Mus musculus)?
[reply] inactive

[ask] Give recorded activity change, negative = inhibition with Mitogen-activated protein kinase 10 (Mus musculus) for the following compound: "COc1cc(C[C@H](C)N)c(OC)cc1I"
[reply] inactive

[ask] Query the reported activity change, negative = inhibition for Mitogen-activated protein kinase 10 (Mus musculus); item: "O=[N+]([O-])c1cccc2c([N+](=O)[O-])cccc12"
[reply] inactive

[ask] Request - read-out activity change, negative = inhibition | tested on Mitogen-activated protein kinase 10 (Mus musculus) | compound "O=C1N[C@@]2(CN3CCC2CC3)C(=O)N1CN(Cc1ccccc1)c1ccccc1"
[reply] 4.81% [at 11.4 µM] (inactive)

[ask] Missing value: activity change, negative = inhibition, Mitogen-activated protein kinase 10 (Mus musculus), entry "C[N+](=O)[O-]" . Fill in?
[reply] inactive

* * *

ASSAY_TARGET: Glucocorticoid receptor (Homo sapiens) (UniProt P04150)
Sequence (P04150 whole entry, looked up): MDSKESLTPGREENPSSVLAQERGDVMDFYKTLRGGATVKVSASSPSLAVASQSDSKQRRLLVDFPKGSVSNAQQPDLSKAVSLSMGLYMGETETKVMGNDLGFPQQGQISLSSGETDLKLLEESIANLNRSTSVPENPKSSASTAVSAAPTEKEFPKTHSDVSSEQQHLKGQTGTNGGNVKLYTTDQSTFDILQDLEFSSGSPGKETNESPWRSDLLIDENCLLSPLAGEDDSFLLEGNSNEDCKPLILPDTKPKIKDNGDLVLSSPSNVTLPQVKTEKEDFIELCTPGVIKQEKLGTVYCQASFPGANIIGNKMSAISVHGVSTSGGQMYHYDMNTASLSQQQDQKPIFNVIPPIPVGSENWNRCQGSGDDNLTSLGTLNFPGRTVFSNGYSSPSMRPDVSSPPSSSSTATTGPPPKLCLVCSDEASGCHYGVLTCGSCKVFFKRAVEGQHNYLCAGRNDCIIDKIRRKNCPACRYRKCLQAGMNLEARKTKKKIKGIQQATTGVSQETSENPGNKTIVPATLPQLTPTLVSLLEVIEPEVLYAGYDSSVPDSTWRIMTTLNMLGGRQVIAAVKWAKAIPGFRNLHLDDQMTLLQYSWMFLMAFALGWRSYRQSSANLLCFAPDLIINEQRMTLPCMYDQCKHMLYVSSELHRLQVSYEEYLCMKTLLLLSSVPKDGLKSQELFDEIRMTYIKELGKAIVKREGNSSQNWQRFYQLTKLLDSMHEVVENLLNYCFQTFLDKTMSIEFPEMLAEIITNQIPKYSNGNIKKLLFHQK
PROCEDURE_TEXT: GR-GFP Redistribution (AID 450); also: potency is read from the fitted curve at half-maximal effect
CONDITION_SET: U2OS GR-GFP nuclear translocation, laser cytometry, 2 h
Active and inactive are the calls of the source.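 The calls were made as follows: active = compounds whose dose series gives a full or clear partial fitted curve of increased nuclear translocation; inconclusive = weak partial curve or effect only at the top dose; inactive = no dose-dependent translocation response.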
MEASUREMENT_KIND: Potency

MOL_SMILES: CC(C)(C)c1cc(C#N)cc(Br)c1OP(=O)(Oc1c(Br)cc(C#N)cc1C(C)(C)C)c1ccccc1
MEASUREMENT_KIND: Potency
MEASURED: > 46 µM (inactive)

MOL_SMILES: NC(N)=NCCN=C(N)N
MEASUREMENT_KIND: Potency
MEASURED: > 46 µM (inactive)

MOL_SMILES: COC(=O)[C@@H]1c2cc3c(c(O)c2[C@@H](O)C[C@]1(C)O)C(=O)c1c(O)cc2c(c1C3=O)O[C@H]1O[C@@]2(C)[C@@H](O)[C@H](N(C)C)[C@H]1O
MEASUREMENT_KIND: Potency
MEASURED: > 46 µM (inactive)

MOL_SMILES: CN(C)CS/C(N)=N/[C@H](O)C(Cl)(Cl)Cl
MEASUREMENT_KIND: Potency
MEASURED: > 46 µM (inactive)

MOL_SMILES: C[C@H](CN(C)C)C(C#N)(c1ccccc1)c1ccccc1
MEASUREMENT_KIND: Potency
MEASURED: > 46 µM (inactive)

[ask] Which measured Potency belongs to "Nc1ccccc1O.O.O=C(O)[C@H]1[O][Sb][O][C@H]1C(=O)O" , tested on Glucocorticoid receptor (Homo sapiens) (UniProt P04150)?
[reply] > 46 µM (inactive)

[ask] Param readout= Potency; system= Glucocorticoid receptor (Homo sapiens) (UniProt P04150); entry= "N[C@@H](CP(=O)(O)O)C(=O)O" ; returns value.
[reply] > 46 µM (inactive)

[ask] Requested read-out Potency, target or system Glucocorticoid receptor (Homo sapiens) (UniProt P04150), entry "CC(C)CCC1(CCN)C(=O)NC(=O)NC1=O"
[reply] > 46 µM (inactive)

[ask] What measured Potency is associated with "O=C(O)C[O][Sb][O]CC(=O)O" on Glucocorticoid receptor (Homo sapiens) (UniProt P04150)?
[reply] > 46 µM (inactive)

[ask] # returns recorded Potency (system: Glucocorticoid receptor (Homo sapiens) (UniProt P04150)) for "Nc1nc(N)c(Cn2ccnc2)c(=O)[nH]1"
[reply] > 46 µM (inactive)

[ask] Field: Potency (Glucocorticoid receptor (Homo sapiens) (UniProt P04150)). Entry: "[N-]=[N+]=CC(=O)CC[C@H](N)C(=O)O"
[reply] > 46 µM (inactive)

[ask] Give the reported Potency for "O=C(O)C[C@H]1OCC=C2CN3CC[C@@]45C6=CC(=O)C(=O)C([N+](=O)[O-])=C6N[C@H]4[C@H]1[C@H]2C[C@@H]35" (system: Glucocorticoid receptor (Homo sapiens) (UniProt P04150)).
[reply] > 46 µM (inactive)

* * *

PROCEDURE_TEXT: Cell Viability - LYMP2-017 (AID 972);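 also: cells exposed to compound for 24 hours at 37 °C; % is scaled to controls: 0 for no effect and ±100 for the full control effect; nearly all actives have a fitted effect of over 55% in size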
CONDITION_SET: LYMP2-017 lymphoblastoid cell viability; series mostly up to 92.2 µM
From the text: NIH Chemical Genomics Center [NCGC] NIH Molecular Libraries Screening Centers Network [MLSCN] National Institutes of Environmental Health Sciences [NIEHS] National Toxicology Program [NTP] We have developed a 1536-well cell-based assay for quantitative high throughput screening (qHTS) against a number of cell lines to determine in vitro cytotoxicity of small molecules. […] 8. Detection; Luminescence; Viewlux plate reader […]
Records with an inconclusive call do not appear. Calls of active or inactive are those of the source. Calls follow the shape of the dose curve; as a rule, active = well fitted cell-killing curve with a large enough effect; inconclusive = small, poorly fitted or top-dose-only effect; inactive = flat fitted curve, though single readings scatter.
Can you answer with just one of these options? active, inactive

MOL_SMILES: [O-][Cl+]O
ANSWER_LABEL: inactive

MOL_SMILES: C[N+](=O)[O-]
ANSWER_LABEL: inactive

MOL_SMILES: CCBr
ANSWER_LABEL: inactive

MOL_SMILES: CCC#N
ANSWER_LABEL: inactive

MOL_SMILES: C=COC(C)=O
ANSWER_LABEL: inactive

MOL_SMILES: Cc1cc(Cl)ccc1O
ANSWER_LABEL: inactive

MOL_SMILES: CCOC(=O)CBr
ANSWER_LABEL: inactive

MOL_SMILES: CCOS(C)(=O)=O
ANSWER_LABEL: inactive

[ask] What is the recorded call for this compound in the test? "Cl/C=C\Cl"
[reply] inactive

[ask] Short answer needed: outcome of this test for "CCCCCOC(=O)c1ccccc1C(=O)OCCCCC" ?
[reply] inactive

[ask] Hi, sorry to bother you, what did the test record for "Nc1cc(Cl)cc(C(=O)O)c1Cl" ?
[reply] inactive

* * *

PROCEDURE_TEXT: Stat Signaling Pathway (AID 446);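 also: ME-180 cervical cancer cells given 40 pM IL-6 alongside compound; SIE-controlled beta-lactamase reporter measured as 460/530 nm FRET emission ratio; % is scaled to controls: 0 for no effect and ±100 for the full control effect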
CONDITION_SET: ME-180 (cervical carcinoma) SIE beta-lactamase reporter, IL-6 stimulated, 5 h; at 7.69 µM (top of the series) unless noted
Results filed as inconclusive are left out. Calls of active or inactive are those of the source. The call rests on the fitted dose curve; in most records, active means well fitted curve in either direction with a large enough effect (not every such curve was filed as active); inconclusive means small, poorly fitted or top-dose-only effect, or another doubt; inactive means flat fitted curve, though single readings scatter.
The categories you may choose from are Y = active, N = inactive

As a guide, the following entries are already answered.
MOL_SMILES: O=C(O)c1cc[c]([Hg][S]c2ncnc3nc[nH]c23)cc1
ANSWER_LABEL: N
//
MOL_SMILES: CC(=O)OC1=CC2=CC[C@H]3[C@H]4CCC(=O)[C@@]4(C)CC(=O)[C@]3(S)[C@]2(C)CC1
ANSWER_LABEL: N
//
MOL_SMILES: O=C(O)Cc1ccc([N+](=O)[O-])cc1[N+](=O)[O-]
ANSWER_LABEL: N
//
MOL_SMILES: O=C(O)/C=C\c1ccc[c]([Sb](=[O])([OH])[OH])c1
ANSWER_LABEL: N

Kindly consider the entry below.
[ask] Please indicate how the test categorized "Cn1c(=O)c2[nH]cnc2n(C)c1=O.[CH2-][C@H](Cc1cccc2cc(C(=O)O)c(=O)oc12)OC.[Hg].[OH-]" .
[reply] N
